target: UniProt:Q9YQ12
Decide using Ki alone. Strictly below 400 pM: yes. Equal to or above 400 pM: no.

| Structure Smiles String | Tested System | Category Label |
| --- | --- | --- |
| COc1ccc(S(=O)(=O)N(CC(C)C)C[C@@H](O)[C@H](Cc2ccccc2)NC(=O)c2ccc3c(c2)[C@@H](N)CC[C@H]3O)cc1 | UniProt:Q9YQ12 | no |
| COc1ccc(S(=O)(=O)N(CC(C)C)C[C@@H](O)[C@H](Cc2ccccc2)NC(=O)c2ccc3c(c2)[C@@H](N)CC[C@@H]3O)cc1 | UniProt:Q9YQ12 | yes |

Note: attention shifts to another entry.
Take the compound COc1ccc(S(=O)(=O)N(CC(C)C)C[C@@H](O)[C@H](Cc2ccccc2)NC(=O)c2ccc3c(c2)[C@@H](NC(=O)OC(C)(C)C)CCS3)cc1 and say whether its Ki is less than 400 pM.
yes

---

experiment: Selectivity index, ratio of CC50 for human MT4 cells to IC50 for HIV1 NL4-3; type: toxicity; conditions: read-out: Ratio CC50/IC50
Recorded measurements of selectivity ratio, one per entry
Please reply with the value in numeric form only.

| Structure Smiles String | selectivity ratio |
| --- | --- |
| COc1ccc(S(=O)(=O)N(CC(C)C)C[C@@H](O)[C@H](Cc2ccccc2)NC(=O)c2ccc3c(c2)[C@@H](NC(=O)OC(C)(C)C)CC[C@@H]3O)cc1 | 131 |

Consider the molecule shown here: COc1ccc(S(=O)(=O)N(CC(C)C)C[C@@H](O)[C@H](Cc2ccccc2)NC(=O)c2ccc3c(c2)[C@@H](N)CC[C@@H]3O)cc1 What is its recorded selectivity ratio?
151

---

assay: Cytotoxicity against human MT4 cells after 7 days by MTT assay; assay type: cell-based; conditions: MT4 cells
Readout Name: CC50 at 168 h

| Structure Smiles String | Data Value |
| --- | --- |
| COc1ccc(S(=O)(=O)N(CC(C)C)C[C@@H](O)[C@H](Cc2ccccc2)NC(=O)c2ccc3c(c2)[C@@H](NC(=O)OC(C)(C)C)CCS3(=O)=O)cc1 | > 100 µM |

Alright, here's another compound for you.
Consider the compound shown here: COc1ccc(S(=O)(=O)N(CC(C)C)C[C@@H](O)[C@H](Cc2ccccc2)NC(=O)c2ccc3c(c2)[C@H](NC(=O)OC(C)(C)C)CCS3(=O)=O)cc1 What is its recorded CC50 at 168 h?
> 100 µM

---

Reported Ki for target or system Protease (Human immunodeficiency virus 1, UniProt Q9YQ12), by entry.
Hi! Could you send only the number? It should be in nM, unit omitted.

Guide cases for Ki, answers given:
| Structure Smiles String | Ki [nM] |
| --- | --- |
| COc1ccc(S(=O)(=O)N(CC(C)C)C[C@@H](O)[C@H](Cc2ccccc2)NC(=O)c2ccc3c(c2)[C@H](NC(=O)OC(C)(C)C)CCS3)cc1 | 26.7 |
| COc1ccc(S(=O)(=O)N(CC(C)C)C[C@@H](O)[C@H](Cc2ccccc2)NC(=O)c2ccc3c(c2)[C@@H](NC(=O)OC(C)(C)C)CCS3(=O)=O)cc1 | 0.008 |
| COc1ccc(S(=O)(=O)N(CC(C)C)C[C@@H](O)[C@H](Cc2ccccc2)NC(=O)c2ccc3c(c2)[C@H](NC(=O)OC(C)(C)C)CCS3(=O)=O)cc1 | 0.1 |

Alright, here's another molecule for you.
Consider the molecule shown here: COc1ccc(S(=O)(=O)N(CC(C)C)C[C@@H](O)[C@H](Cc2ccccc2)NC(=O)c2ccc3c(c2)[C@H](N)CCS3(=O)=O)cc1 What is its recorded Ki?
18

---

molecular target: Protease (Human immunodeficiency virus 1)
Sequence (Q9YQ12 whole entry): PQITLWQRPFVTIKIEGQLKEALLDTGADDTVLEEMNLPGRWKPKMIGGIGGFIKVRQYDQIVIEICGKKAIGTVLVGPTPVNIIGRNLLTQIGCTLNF
Readout Name: pKi
In simple prose, pKi is minus the logarithm base ten of a concentration in moles per litre.

Guide cases for pKi, answers given:
| Structure Smiles String | Tested System | Readout Name | Data Value |
| --- | --- | --- | --- |
| COc1ccc(S(=O)(=O)N(CC(C)C)C[C@@H](O)[C@H](Cc2ccccc2)NC(=O)c2ccc3c(c2)[C@@H](NC(=O)OC(C)(C)C)CC[C@H]3O)cc1 | Protease (Human immunodeficiency virus 1) | pKi | 9.52 |
| COc1ccc(S(=O)(=O)N(CC(C)C)C[C@@H](O)[C@H](Cc2ccccc2)NC(=O)c2ccc3c(c2)[C@@H](N)CCS3(=O)=O)cc1 | Protease (Human immunodeficiency virus 1) | pKi | 7.80 |

Alright, here's another compound for you.
Consider the compound shown here: COc1ccc(S(=O)(=O)N(CC(C)C)C[C@@H](O)[C@H](Cc2ccccc2)NC(=O)c2ccc3c(c2)[C@@H](NC(=O)OC(C)(C)C)CC[C@@H]3O)cc1 What is its recorded pKi?
9.85
